Molecular target: T1, UBE2G2:G2BR^gp78 complex (UniProt P60604 1-165, ^15N-labeled)
T1 construct: UBE2G2, as m15; N-terminal Trp residue added for peptide quantification, as m17; gp78 G2BR, residues 574-600, as m17; Complex formed before titration with the gp78 RING; also called G2BR^gp78:UBE2G2
T1 sequence 1: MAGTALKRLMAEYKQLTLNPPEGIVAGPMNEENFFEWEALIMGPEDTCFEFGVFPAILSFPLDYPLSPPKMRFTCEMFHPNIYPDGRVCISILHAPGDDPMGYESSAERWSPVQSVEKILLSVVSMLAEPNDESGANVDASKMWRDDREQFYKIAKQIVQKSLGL
T1 sequence 2: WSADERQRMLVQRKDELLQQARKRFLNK
Assay: NMR titration; ^1H-^15N HSQC of ^15N-labeled UBE2G2 at 150 μM, alone or bound to G2BR peptide, titrated with gp78 RING 0 to 450 μM; chemical shift perturbations fitted; 50 mM Tris-Cl pH 7.0, 0.5 mM TCEP, 100 μM zinc sulfate
Conditions: both partners purified
valueType: Kd (µM)

1) gp78 RING domain (domain or fragment, UniProt Q9UKV5 313-393, looked up, gp78 (aka AMFR or RNF45), RING domain; the limits 313-393 are those of the only gp78-RING construct that the methods name; also called gp78-RING construct (aa 313 to 393)) KNYLRVVGNMEARFAVATPEELAVNNDDCAICWDSMQAARKLPCGHLFHNSCLRSWLEQDTSCPTCRMSLNIADNNRVREE ... 20.3
